Protocol Summary: label from the status in PepcDB records;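 also: failed if final PepcDB status was selected cloned or expressed and not failed if soluble or beyond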
Quantity: protein production

sequence `MTEKNTLKKSATLAAAGLVVAGALLAGCGESKATPMDDAYAGNSGETEKSQEEQSQSQSNGSDSSDGSDSGSSHNDPSTTTSDKKDTGNYKDGNYSINGQYGPVGEDSIDVHLTIKDGNVETVKIIGHPFTTISKNHQDDFAKAINGVVDGKPLKGLKVDKVAGASWTSDAFNKALEVARQEASIQE` , protein production observed: failed

The reported protein production of the sequence `MTEIQRLLSETIDDLNIREKRDNRPRFSISFIRKHPGLFIAMYAAWFATLAVMLQSETLVGSVWLLVVLFIAFNGFFFFDIAPRYHYNDIDVLDLRVCYNGEWYNTRFVPPTLIETILQSPQVDNEHKVQLQKMVARKGELSFYDIFTLARAEASR` was failed

----------
Protocol Summary: label from the status in PepcDB records
Quantity: protein production

Lab note: `MSVSIILMGLFVGALVGLTGVGGAALLTPLLIVLGINPSIAVGTDLVYNSITKLFGVASHWRQKTINFKLVKYLAIGSIPSASLAIGILHLFPAFHQHQEEIIKHALGYVLTLVAISIIVRLFLDRKLRPNRWQLMPLENKRALTILIGVVFGFIVGLTSIGSGSLFAIAMIYLFNMKASQIVGTDIAHAFLLVTAAGILNASFGSVDYMLAANLLLGSIPGVLIGSHLSPRFSPRPLQFIMASIILVSGLKLI` gave protein production of failed

Measured protein production, `MSRTMAEVNRLLKKTAGLINKDTESPFQGEFRVGVDLGTADIQTIVLDADGNPLAGFMDWANVVRDGVVVDFFGASQIVREQVRRASAKLGIQIEQVTTSFPPGTDSRISTNVIEAAGLEVAGVIDEPSSVAQLLQLDHAAVVDIGGGTTGTAIIEEGRVVRSMDDATGGRHITLTLAGHFGLPYEEAEEMKRTSKDLALCRLAAPVIAKMADIVHGHIAGHKVPAIYLTGGSCALPGFLEVFAAEFPGIEIVMPSHPLYLTPLAIATYSDVLQTREQRVGLEHHHHHH` : failed

----------
Protocol Summary: label from the status in PepcDB records
Quantity: protein production

Short answer for `MFDRLKTMLIKEAIQILRDPKMRFIILVIPAIQITLFGYAVNTDVKHIATAVYDLDNSALSRDLVARLERSGYFDIVQRVQRGDELRDLLDRGKVRAAVQINRGFEENIRAGRTATLPIIVDGTDPSTARIVVSYSVTIAERFSDQILTDYSLRKSGRTTGGNGIELESRAWFNANLESRNYYVPGVIASMVLITTMMLSSMAVVREKEIGTMEQIIVTPIQRWEFIVGKLVPFAIVGYINVTIVTCIALFWFKIPLRGSILLLIGSTALFLMSTLGFGLLISTISRTQQQAMMSSFMFTFPAMLLSGFAFPIENMPTSIQYATYLNPLRYYLVIVRGIFLKGIGLGILWPQLAALALLGSVVLLFAVGRFKKSVG` : protein production was failed

The reported protein production of the sequence `MSTGQAPEKSNFSQRCSLLSRYLKEKGSFGNINMGLARKSDLELAGKFDLKGQQNVIKKVETSETRPFKLIQKFSIGEASTSTEDKAIYIDLSEPAKVAPESGNSQLTIFFGGKVMVFNEFPEDKAKEIMEVAKEANHVAVDSKNSQSHMNLDKSNVVIPDLNEPTSSGNNEDQETGQQHQVVERIARRASLHRFFAKRKDRAVARAPYQVNQHGSHLPPKPEMVAPSIKSGQSSQHIATPPKPKAHNHMPMEVDKKEGQSSKNLELKL` was failed

----------
Protocol Summary: label from the status in PepcDB records
Quantity: protein production

// worked examples, protein production included
The sequence listed as `MTSPASCSPPNEKRTGSPFPPESRSLPSTMEMTMNTIFRPAPHPLPDAPFYTPLGNECVLFESAWVRQLPLLLKGPTGCGKTRFVSHMAAKLGLPLSTISCHDDLAAADLTGRYLLKGGETVWMDGPLTRSVRQGGICYLDEIVEARKDVAVVLHPLTDDRRILPLERTGEVLEAPSGFMLVVSYNPGYQNLLKSLKPSTRQRFVAIEFDFLPKEQEIAVVSHESGLDARDVEPLVDLAHRLRGLKGHDLEEGVSTRLLVYCASLIDTGLPARQAVRATMIEPLTDEPDVKAALHEVADAIIRLEHHHHHH` has a reported protein production of failed

Input `MDFSVLLASLGISILELSEASAVAVIFQGIYKNSKPFLYAIAGILIVLVPVFTLGQYIVLLPINYVLLVAAVILAYFGYKLLRSARRSFKGSKKKHEEKEEGIMTVFVVSATEALEAGLVILALIPQSFSSALLGTGIAVIIVIALTIALRSQIMKIRVPHLKFVLSALLFGLATLFVAEALVDIDEVFLPLFFVIYLGVNYLVIKL` . Output protein production: failed

Measured protein production, `MTENPEEDNKVFNYWWLAHLVEVRLDAYLRTKKQADLEVAEKTYLHNKNRNGGTLIHDFYDDMLWNALAAYRLYKATGKSIYLEDAQLVWQDLVDTGWNDIMGGGFAWRRPQMYYKNTPVNAPFIILSCWLYNELNETKYLEWAMKTYEWQTKVLVREDGFVEDGINRLEDGTIDYEWKFTYNQGVYIGANLELYRITKEAKYLDTANKTAAISLKELTEDGIFKDEGNGGDEGLFKGIFYRYFTDLIEETANKTYRDFVLNSCQILVENAKLDGYLLMGMNWKEKPSGKIPYSAELSGMIALEMAAKLELEHHHHHH` : not failed

protein production reported for this sequence `MGAGQTPHPQLIWPALLKQQGCNELLPLRTNDDWQRFCADSKHLLQYGDKLVDSNFHCFVLEEDAHWHPAAPLPPEGLNDLIRAHCATLGHCCTSKMHLHSVMDAIDFLNALEG` : not failed

Value of measured protein production for the entry `MLTIDTASRTFHCKTWVTGQTQGKAVIARERISFWGGFDPQTGRIVDPYSSLRGRDISDCVLILLSSKGSSGTSGMLSLATRAGHAPAAMIQVEMDPVTVMGCLVNNIPLLQATGFDPFEQIQDGDLVRIDGENGTITLAPGQALEHHHHHH` : not failed

Entry `MLWFAMSSVLRVRPTKIELIRLKRRKALAEKVHRILRERLTILVNEFLVRVREAYSLRRTVNDLVFNLYNDSVLLNSVYGEYGFQYFRSITVEGLRAVIGVENIMGVKTRSAVVKHSKTIEYVYPGFDSFRDGARKLIEAIIELGRAEQALIALGREIERTKRKVNALKYIIIPRLANTIRYLNMKFEEREREEKARLKRIKSVLEKRR` , protein production reported as failed

// sample `MTLVRMTEKLLSPLHTRPWPERWLTRVLGAALASAAYLLCLPWDLNNRAPSPGAVEETTPVTGVGVVALAVILLALAAYFGHRDSLGWPVLLVAVPPAALLYVSLRTHPGPPDGFAGVWPLVWGFFTLLIGVGVLVAAAVAREFRADLVDEELSLAHRR` , its protein production was failed

The recorded protein production for entry `MGAFNRRNKRVNNGNVTHLRPFRRNQLRNDNAYDPDEHDLEYVRPRRRGIYLLPNAFTTAALFAGFFAIVQAMNMRFDVAAIAIFAAMVLDGMDGRVARITNTQSAFGEQYDSLSDMTSFGVAPALVMYEWILHDLGKWGWIAAFVYCTCAALRLARFNANIGVVDKRFFQGLPSPAAAALVAGFVWLAIDNKLPVKELWMPWVAFGITLYAGLSMVSNAPFYSGKALDVRYRVPFGMMVLVLVLFVVVSSDPPVALFGLFVAYAISGYLLWAWRTLHGQRGGVDKSRAPGNGSGGN` equals failed

// protein production lookup, sequence = `MTDESDALCATEKEIMHATHRALVNSGYAELSISRISDELDKAKSTIYHYYDSKDALLLRFLRFTVDRFEATINTSIGDNPKEDLNHIISTLLPCQLPEEKRQLHSVLVTLSPQALERAVFREQFTEIDTRLATIIEKTVRRGVDADVFRDVDPTHAAEHILATIKGTMYSRLTTNREAATAAAKASLFSYIDSHLIS` , result: failed

The reported protein production of the sequence `MKVFTEKIPNIPWEERPEGYTGPVWRYSKNPIIGRNPVPKGARVFNSAVVPYNGEFVGVFRIDHKNTRPFLHFGRSKDGINWEIEPEEIQWVDVNGEPFQPSYAYDPRVVKIEDTYYITFCTDDHGPTIGVGMTKDFKTFVRLPNAYVPFNRNGVLFPRKINGKYVMLNRPSDNGHTPFGDIFLSESPDMIHWGNHRFVLGRSSYNWWENLKIGAGPYPIETSEGWLLIYHGVTLTCNGYVYSFGAALLDLDDPSKVLYRSRYYLLTPEEEYETVGFVPNVVFPCAALCDADTGRVAIYYGAADTHVALAFGYIDEIVDFVKRNSM` was not failed

Others:
Data point: `MKCKDDMSAVLTAEQALKLVGEMFVYHMPFNRALGMELERYEKEFAQLAFKNQPMMVGNWAQSILHGGVIASALDVAAGLVCVGSTLTRHETISEDELRQRLSRMGTIDLRVDYLRPGRGERFTATSSLLRAGNKVAVARVELHNEEQLYIASATYMVG` ; protein production = failed

Documented protein production of `MGWVRTKALTMEQPSAPSLTRWLFAGVLMAIIGVLLFILHASGTVKIISVINIWWVSLMPAGCWLLIFCLRCYLWDRDLKAHQFLLKEAEYGQQRWEDWAGRWLAVLSSAVLLPDHISAAHWGSERPQQYGLARRINYLPVEEPVQLSAMHALLTSIEERVQCLPEELPLYVTLITDNPSPELTSSFSNLWKEHIPGRAVPDDITVTGSFSLSEVEERLKQPVLTVNLLLVIQLNGGTAYSDGLAVLLLTSDDVAQKYHLPHSSRLLRPMPLDMTNFEDDITLFLETQTVACQTPSVIGDAKKWTERSAALITQGGKMHTPWKAEDIALLEKWCGIPGPAAPWLLTALAADLVSLRKQPLLALFSSEQEHFISTITPGSEDDYTG` : failed
